Where do these numbers come from? They come from paper PMC7562955.

assay.explanation: Pharmacokinetic profiling after oral dose in NZB/W F1 mice
Format: in vivo, mouse
measurement.context: female, NZB/W F1, mouse, plasma, oral, 100 mg/kg, 100 mg/kg po; 24 h; read-out: plasma Concentration, individual mouse
assay.endpoint: concentration at 24 h (ng/mL)
Respond with the bare value in ng/mL.

Quick check: concentration at 24 h of CCOc1nc(C)c2nc(-c3cncc(F)c3)n(Cc3ccc(CN4C[C@@H]5C[C@H]4CN5C)cc3)c2n1 [Cpd-7] ?
8.33

###

measurement.target: TLR7 (Homo sapiens, UniProt Q9NYK1)
Sequence (Q9NYK1 27-1049): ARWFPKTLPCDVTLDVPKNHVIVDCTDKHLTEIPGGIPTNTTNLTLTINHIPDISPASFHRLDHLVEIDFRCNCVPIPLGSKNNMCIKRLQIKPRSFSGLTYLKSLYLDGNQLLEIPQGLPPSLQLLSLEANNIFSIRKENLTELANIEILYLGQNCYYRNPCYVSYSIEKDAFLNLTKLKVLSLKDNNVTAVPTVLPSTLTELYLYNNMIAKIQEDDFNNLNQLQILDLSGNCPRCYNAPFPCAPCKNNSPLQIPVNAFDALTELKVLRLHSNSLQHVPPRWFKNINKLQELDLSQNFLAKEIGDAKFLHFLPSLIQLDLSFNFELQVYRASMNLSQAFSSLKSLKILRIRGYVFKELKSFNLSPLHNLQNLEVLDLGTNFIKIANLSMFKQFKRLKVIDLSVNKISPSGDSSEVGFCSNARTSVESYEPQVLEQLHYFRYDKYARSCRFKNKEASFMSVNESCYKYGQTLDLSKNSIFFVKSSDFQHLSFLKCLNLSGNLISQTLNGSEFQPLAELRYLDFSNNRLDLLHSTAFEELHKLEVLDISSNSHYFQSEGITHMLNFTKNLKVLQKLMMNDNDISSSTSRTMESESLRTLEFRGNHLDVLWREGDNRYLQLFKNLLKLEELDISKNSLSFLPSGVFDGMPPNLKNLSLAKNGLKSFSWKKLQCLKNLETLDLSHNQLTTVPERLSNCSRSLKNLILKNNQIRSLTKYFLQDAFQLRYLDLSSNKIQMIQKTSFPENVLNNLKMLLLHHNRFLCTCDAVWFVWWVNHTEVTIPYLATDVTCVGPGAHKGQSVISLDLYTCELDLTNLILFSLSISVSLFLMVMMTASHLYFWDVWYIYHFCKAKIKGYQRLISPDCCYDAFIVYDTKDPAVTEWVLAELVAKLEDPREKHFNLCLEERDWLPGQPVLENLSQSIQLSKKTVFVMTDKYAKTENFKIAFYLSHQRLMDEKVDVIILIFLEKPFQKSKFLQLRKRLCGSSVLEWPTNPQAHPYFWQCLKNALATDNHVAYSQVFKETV
assay.explanation: Human TLR7 reporter gene inhibitory activity assay (NF-κB/SEAP HEK293)
Type: cell-based
Design: host or cells: HEK293 (TLR7/NF-κB/SEAPorter)
measurement.context: compound 10 nM (as headed); R848 200 nM
assay.endpoint: human TLR7 activity, reporter signal

Sample `CCOc1nc(C)c2nc(-c3cncc(F)c3)n(Cc3ccc(CN4C[C@@H]5C[C@H]4CN5C)cc3)c2n1` — what was its human TLR7 activity, reporter signal?
-0.02908

Look up human TLR7 activity, reporter signal for this compound: `CCOc1nc(N)c2nc(-c3cncc(F)c3)n(Cc3ccc(CN4C[C@@H]5C[C@H]4CN5C)cc3)c2n1`
-0.02343

Requested field: human TLR7 activity, reporter signal. Item: `CCCCOc1nc(N)c2nc(-c3cccnc3)n(Cc3ccccc3)c2n1`
1.162

Could you tell me which human TLR7 activity, reporter signal is on file for CCN(CCO)CCCC(C)Nc1ccnc2cc(Cl)ccc12 (stereo not shown) [HCQ, hydroxychloroquine, reference compound] ?
1.109

###

measurement.target: TLR7 (Homo sapiens)
assay.explanation: Human TLR7 reporter gene agonistic activity assay
Type: cell-based
Set-up: host or cells: HEK293 (TLR7/NF-κB/SEAPorter)
measurement.context: compound 0.001 nM (as headed)
assay.endpoint: activation of human TLR7, reporter signal
# output: bare number, no unit

Item `CCOc1nc(N)c2nc(-c3cncc(F)c3)n(Cc3ccc(CN4C[C@@H]5C[C@H]4CN5C)cc3)c2n1` has what recorded activation of human TLR7, reporter signal?
-0.07495

Fill in the blank: the reported activation of human TLR7, reporter signal of `CCCCOc1nc(N)c2nc(-c3cccnc3)n(Cc3ccccc3)c2n1` is ____.
-0.0519

Fill in: activation of human TLR7, reporter signal of `CCOc1nc(C)c2nc(-c3cncc(F)c3)n(Cc3ccc(CN4C[C@@H]5C[C@H]4CN5C)cc3)c2n1` is ___
-0.0428

So what does the record say about activation of human TLR7, reporter signal for CCOCc1nc2c(N)nc3ccccc3c2n1CC(C)(C)O [R848, reference compound] ?
-0.0355

###

measurement.target: human TLR9 (Homo sapiens)
Construct: host or cells: HEK293 (TLR9/NF-κB/SEAPorter)
Sequence (Q9NR96 26-1032): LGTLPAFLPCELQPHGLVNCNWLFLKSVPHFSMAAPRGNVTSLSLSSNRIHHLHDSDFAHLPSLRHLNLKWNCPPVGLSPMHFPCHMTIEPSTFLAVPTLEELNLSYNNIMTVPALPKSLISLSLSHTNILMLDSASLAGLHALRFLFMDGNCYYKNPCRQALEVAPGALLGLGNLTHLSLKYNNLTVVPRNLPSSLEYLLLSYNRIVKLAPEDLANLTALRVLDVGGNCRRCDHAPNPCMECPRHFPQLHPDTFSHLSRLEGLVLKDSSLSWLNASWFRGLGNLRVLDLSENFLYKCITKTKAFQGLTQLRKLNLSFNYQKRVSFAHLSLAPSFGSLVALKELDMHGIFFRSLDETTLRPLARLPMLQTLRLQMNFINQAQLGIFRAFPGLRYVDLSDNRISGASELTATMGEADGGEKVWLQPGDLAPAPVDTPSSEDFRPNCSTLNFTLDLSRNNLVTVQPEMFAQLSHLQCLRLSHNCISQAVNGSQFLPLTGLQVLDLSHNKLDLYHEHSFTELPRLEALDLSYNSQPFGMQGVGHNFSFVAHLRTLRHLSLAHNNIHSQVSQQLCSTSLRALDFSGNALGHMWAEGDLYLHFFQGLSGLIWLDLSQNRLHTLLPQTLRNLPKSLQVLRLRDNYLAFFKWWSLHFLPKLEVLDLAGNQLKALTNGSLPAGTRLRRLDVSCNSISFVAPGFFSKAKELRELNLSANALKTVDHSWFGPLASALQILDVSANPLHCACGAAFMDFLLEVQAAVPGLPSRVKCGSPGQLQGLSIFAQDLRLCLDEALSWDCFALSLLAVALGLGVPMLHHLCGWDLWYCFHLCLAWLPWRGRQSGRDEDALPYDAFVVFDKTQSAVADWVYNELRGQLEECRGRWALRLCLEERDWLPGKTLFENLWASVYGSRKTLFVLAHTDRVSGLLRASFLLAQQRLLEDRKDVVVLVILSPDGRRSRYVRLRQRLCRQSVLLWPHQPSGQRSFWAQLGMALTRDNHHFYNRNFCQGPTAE
assay.explanation: Human TLR9 reporter gene inhibitory activity assay (NF-κB/SEAP HEK293)
Assay type: cell-based
measurement.context: compound 0.01 nM (as headed); CpG2006 500 nM
Method: Compounds were dissolved in dimethyl sulfoxide. […] The plates were then incubated an additional 20 ± 1 h at 37 °C in 5% CO2 and then the secreted embryonic alkaline phosphatase (SEAP) activity was measured as activation of human TLR7, 8, and 9. […]
assay.endpoint: human TLR9 activity, reporter signal

Lookup: human TLR9 activity, reporter signal / human TLR9 (Homo sapiens) / CCN(CCO)CCCC(C)Nc1ccnc2cc(Cl)ccc12 (stereo not shown) [HCQ, hydroxychloroquine, reference compound]
0.3663

Give recorded human TLR9 activity, reporter signal with human TLR9 (Homo sapiens) for the following molecule: `CCCCOc1nc(N)c2nc(-c3cccnc3)n(Cc3ccccc3)c2n1`
0.4157

Form: Entry = `CCOc1nc(C)c2nc(-c3cncc(F)c3)n(Cc3ccc(CN4C[C@@H]5C[C@H]4CN5C)cc3)c2n1` | System = human TLR9 (Homo sapiens) | human TLR9 activity, reporter signal = ____
0.4209

Can you look up human TLR9 activity, reporter signal on human TLR9 (Homo sapiens) for `CCOc1nc(N)c2nc(-c3cncc(F)c3)n(Cc3ccc(CN4C[C@@H]5C[C@H]4CN5C)cc3)c2n1` ?
0.3689
